Numbers sourced from PubChem BioAssay (NCI).

For each entry below, report its TGI value.
Test system: SK-MEL-2 melanoma
Assay: NCI tumour cell line growth inhibition, 48 h

Ask: Give the measured TGI of CC12C(=C(C#N)C(=N)N1c1ccc(Cl)c(Cl)c1)C=C(O)CC2SCCS(=O)(=O)O (stereo not given) .
Reply: > 100 µM

Ask: Check "CCOC(=O)c1cnc2c(ccc3[nH]cccc32)c1=O" too.
Reply: > 100 µM

Ask: Check "O=C(/C=C1\N=C(c2ccccc2)N(c2nc3c(Cl)cc(Cl)cc3s2)C1=O)/C=C/c1ccccc1" too.
Reply: > 100 µM

Ask: Check O=[N+]([O-])c1ccc(C2=NOC(c3ccc(Cl)cc3)N2C23CC4CC(CC(C4)C2)C3)cc1 (stereo not given) too.
Reply: > 100 µM

Ask: Check "Cc1c(-c2ccc(O)cc2)oc(=O)c2ccc(O)cc12" too.
Reply: > 100 µM

Ask: Check "CCCCOCOc1ccccc1P1(=O)COc2ccccc2OC1" too.
Reply: > 100 µM

Ask: Check "Cc1nc(-n2nc(-c3ccccc3)cc2-c2ccccc2)sc1C(=O)/C=C/c1ccc(Cl)c(Cl)c1" too.
Reply: > 100 µM

Ask: Check "COC(=O)c1cc(NC(=O)c2cc(NC(=O)Cc3c[nH]c4ccccc34)cn2C)cn1C" too.
Reply: 68.1 µM

Ask: Check CCN(CC)CCC(CNc1ccnc2cc(Cl)ccc12)c1ccccc1 (stereo not given) too.
Reply: 4.06 µM

Ask: Check "CCOC(=O)c1nc2ccccc2nc1Oc1ccc(C#N)cc1" too.
Reply: > 100 µM

Ask: Check "COc1ccc2nc(-c3ccccc3)cc(Nc3cccc(C(C)=O)c3)c2c1" too.
Reply: > 100 µM

Ask: Check CN(C)C(=O)OC1=CC2CCC(C1)N2C (stereo not given) too.
Reply: > 100 µM

Ask: Check Cn1c2[n+](c3nc(N)[nH]c(=O)c31)C1OC(C2)C(O)C1O (stereo not given) too.
Reply: > 100 µM

Ask: Check "COC1=C(OC)C(=O)C(Sc2ccc3ccccc3c2)=CC1=O" too.
Reply: 31.4 µM

Ask: Check "OCc1ccc(N2CCc3cc(F)ccc3C2)cc1Cl" too.
Reply: 17.8 µM

Ask: Check "CCCCCCNC(=S)N/N=C(\C)c1ccccn1" too.
Reply: 22.7 µM

Ask: Check CC(=O)OCC1OC(n2c(N)c(C#N)c(C)c(C#N)c2=S)C(OC(C)=O)C(OC(C)=O)C1OC(C)=O (stereo not given) too.
Reply: > 100 µM

Ask: Check "O=C(Cn1c(=O)oc2ccc(C(=O)c3ccc(F)cc3)cc21)c1ccccc1" too.
Reply: > 100 µM

Ask: Check COC(=O)C1=C(OC(=O)/C=C/c2ccc(Cl)cc2)C(C(=O)OC)[C@]2(O)[C@@H](C(=O)OC)[C@H]1C[C@@H](c1ccccc1)[C@@H]2C(=O)OC (stereo not given in full) too.
Reply: > 27.9 µM

Ask: Check COc1cc(C2c3[nH]c4ccccc4c3[C@@H](Nc3ccc(C#N)cc3)[C@H]3COC(=O)N23)cc(OC)c1O (stereo not given in full) too.
Reply: 0.752 µM

Ask: Check CC(=O)[CH-]C(=O)c1ccccc1.CC(=O)[CH-]C(=O)c1ccccc1.CC(C)CCC[C@H](C)C1CCC2[C@@H]3CC=C4C[C@@H]([O-])CC[C@]4(C)C3CC[C@@]21C.CC(C)CCC[C@H](C)C1CCC2[C@@H]3CC=C4C[C@@H]([O-])CC[C@]4(C)C3CC[C@@]21C.Cl.[Ti+4] (stereo not given in full) too.
Reply: > 25 µM

Ask: Check "Cc1ccc(-c2nc(N3CCNCC3)c3oc(-c4ccccc4)nc3n2)cc1" too.
Reply: 6.01 µM

Ask: Check "O=c1cc(NNc2ccccc2F)[nH]c(=O)[nH]1" too.
Reply: 30.8 µM

Ask: Check "O=c1c2ccccc2nc(-c2ccccc2Cl)n1-c1nnc(C(F)(F)F)s1" too.
Reply: 6.27 µM

Ask: Check "CN1CCN(c2ccc(NC(=O)c3cncnc3Nc3ccc(OCc4cccc(F)c4)c(Cl)c3)cc2)CC1" too.
Reply: 12.2 µM

Ask: Check "C(=Nc1cnc2ccccc2c1)c1ccc2ccccc2n1" too.
Reply: > 100 µM

Ask: Check COc1cc(C2c3cc4c(cc3OC(NCCc3ccccc3)C2C)OCO4)cc(OC)c1OC (stereo not given) too.
Reply: > 42.1 µM

Ask: Check "COc1c(O)cc2c(c1O)C(=O)C1=C(CCCC1)C2=O" too.
Reply: > 100 µM

Ask: Check C[C@@H]1CCC2C(C)(C)C(/C=C\C=O)C3(C)OC213 (stereo not given in full) too.
Reply: > 100 µM

Ask: Check "O=c1ccc(=O)n(-c2ccccc2)[nH]1" too.
Reply: > 100 µM

Ask: Check "COc1cc(C2C(C(=O)Nc3ccc([N+](=O)[O-])cc3)=C(C)NC(C)=C2C(=O)Nc2ccc([N+](=O)[O-])cc2)ccc1O" too.
Reply: 34.7 µM

Ask: Check "CCCCCCCCCCSC(=O)NC" too.
Reply: 69 µM

Ask: Check O=C(O)C(O)C(O)C(O)C(O)C(=O)O (stereo not given) too.
Reply: > 100 µM

Ask: Check "Oc1cnc2c(O)cccc2c1" too.
Reply: > 100 µM

Ask: Check O=C(CC(c1ccccc1)C1C(=O)NC(=S)NC1=O)c1ccc([N+](=O)[O-])cc1 (stereo not given) too.
Reply: > 100 µM

Ask: Check "NC(=O)NNCc1c(-c2ccccc2)no[n+]1[O-]" too.
Reply: > 100 µM

Ask: Check "Cc1ccc(/C=C/c2c(C(=O)/C=C/c3ccc(Cl)cc3)c(C)nc3ccccc23)cc1" too.
Reply: 4.96 µM

Ask: Check "O=Cc1c(-c2ccccc2)[nH]c2ccccc2c1=O" too.
Reply: > 100 µM

Ask: Check O=C1C2c3[nH]c4ccccc4c3C3CCCCCC3C2C(=O)N1c1ccccc1 (stereo not given) too.
Reply: 67.2 µM

Ask: Check "CCc1[nH]c(=O)c2oc3cc4ccccc4cc3c2c1C(=O)O" too.
Reply: > 10 µM
